src = BindingDB's records for doi:10.1016/S0960-894X(97)00175-3

Biological target: Squalene monooxygenase (Sus scrofa)
Assay: In vitro inhibition of pig liver microsomal squalene epoxidase (SE) by measuring the extend of cholesterol radiolabeling after incubation with [14C]mevalonate
pIC50: −log10 of the molar value.

{"smiles": "CCN(CC#Cc1ccccc1)Cc1cccc(OCc2cc(-c3ccsc3)cs2)c1", "system": "Squalene monooxygenase (Sus scrofa)", "bound_operator": "=", "pIC50": 7.00}
{"smiles": "CCN(CC#Cc1ccc(N=[N+]=[N-])cc1)Cc1cccc(OCc2cc(-c3ccsc3)cs2)c1", "system": "Squalene monooxygenase (Sus scrofa)", "bound_operator": "=", "pIC50": 6.02}
{"smiles": "CCN(CC#Cc1ccccc1N=[N+]=[N-])Cc1cccc(OCc2cc(-c3ccsc3)cs2)c1", "system": "Squalene monooxygenase (Sus scrofa)", "bound_operator": "<", "pIC50": 4.00}
{"smiles": "CCN(CC#Cc1cccc(N=[N+]=[N-])c1)Cc1cccc(OCc2cc(-c3ccsc3)cs2)c1", "system": "Squalene monooxygenase (Sus scrofa)", "bound_operator": "=", "pIC50": 6.57}
{"smiles": "CCN(C/C=C/C#CC(C)(C)C)Cc1cccc(OC[Si](C)(C)c2ccc(N=[N+]=[N-])cc2)c1", "system": "Squalene monooxygenase (Sus scrofa)", "bound_operator": "=", "pIC50": 6.28}
